# System: pigweed (Amaranthus retroflexus)
# Test protocol: Test A preemergence, visual plant response rating
# Format: in vivo
# Measurement parameters: 500 g ai/ha Preemergence; approx. 10 days
# Text: […]
Endpoint: Pigweed plant response rating (0 to 100 scale)

| Molecule | Numeric readout |
| --- | --- |
| CO/N=C(/c1c(O)c(Cl)nn(C)c1=O)c1cccc2ccccc12 | 90 |
| CCCO/N=C(/c1c(O)c(C)nn(C)c1=O)c1cccc2ccccc12 | 100 |
| CON=C(c1cccc(C#N)c1)c1c(O)c(C)nn(C)c1=O | 0 |
| CCO/N=C(\c1c(O)c(Cl)nn(C)c1=O)c1cccc2ccccc12 | 100 |
| CO/N=C(\c1sccc1C)c1c(O)c(C)nn(C)c1=O | 20 |
| CON=C(c1c(O)c(C)nn(C)c1=O)c1cccc2sccc12 | 50 |
| CON=C(c1ccccc1C1CC1)c1c(O)c(C)nn(C)c1=O | 70 |
| CON=C(c1c(O)c(C)nn(C)c1=O)c1cccc2cc(Br)ccc12 [Compound 96] | 100 |
| Cc1ccccc1/C(=N/OC(C)C)c1c(O)c(C)nn(C)c1=O | 80 |

// data source = patent US20210045385A1
